Origin of measurements: the array DNA melting data of Ke et al. (doi:10.1101/2024.01.08.574731)

- procedure_text: melting temperature; fluorescence melt of hairpins on a sequencing array, two-state fit, raised by 9.35 °C to match UV melts
- condition_parameters: sodium 0.088 M
quantity_name: Tm
Could you write the number and then its unit?

Some solved cases for reference:
1) GGTCCCGAAAGGGTTACC ((((((....)))..)))
39.6 °C
2) GCACAGCGAAAGCTTGC (((.(((....))))))
51.5 °C
3) GCCTCCGAAAGGAATGGC ((((((....)))..)))
49.9 °C

Name the recorded Tm of the sequence listed here: GTGAGTGGAAACACTTGC (..((((....))))..)
36.4 °C

Name the recorded Tm of the sequence listed here: GATCCAATTATGGATC ((((((....))))))
50.4 °C
